The reported numbers originate from ChEMBL document CHEMBL1139145.

target.under.test: Integrin alpha-V/beta-3 (Homo sapiens, UniProt P05106+P06756)
Sequence (P05106 27-788 limits assumed): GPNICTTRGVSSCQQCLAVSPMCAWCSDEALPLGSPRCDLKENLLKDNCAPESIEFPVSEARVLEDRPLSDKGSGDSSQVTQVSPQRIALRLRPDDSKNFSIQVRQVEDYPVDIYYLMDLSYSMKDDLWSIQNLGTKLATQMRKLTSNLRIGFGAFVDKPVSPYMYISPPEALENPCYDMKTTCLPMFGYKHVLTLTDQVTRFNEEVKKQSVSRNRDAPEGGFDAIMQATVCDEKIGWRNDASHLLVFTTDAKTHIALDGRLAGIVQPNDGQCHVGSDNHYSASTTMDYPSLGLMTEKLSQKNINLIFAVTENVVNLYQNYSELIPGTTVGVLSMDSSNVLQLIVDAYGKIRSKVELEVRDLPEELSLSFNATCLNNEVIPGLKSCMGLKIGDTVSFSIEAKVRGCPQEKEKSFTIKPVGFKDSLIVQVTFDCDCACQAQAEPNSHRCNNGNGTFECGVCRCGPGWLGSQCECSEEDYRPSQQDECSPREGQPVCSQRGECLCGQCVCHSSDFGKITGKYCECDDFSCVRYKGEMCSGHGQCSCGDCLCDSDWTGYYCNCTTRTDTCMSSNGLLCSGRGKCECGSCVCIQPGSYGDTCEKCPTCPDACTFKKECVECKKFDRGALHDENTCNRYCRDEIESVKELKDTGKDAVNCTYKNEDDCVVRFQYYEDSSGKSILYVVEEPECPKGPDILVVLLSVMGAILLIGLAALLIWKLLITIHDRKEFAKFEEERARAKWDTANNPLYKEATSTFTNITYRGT
Sequence (P06756 31-889 limits assumed): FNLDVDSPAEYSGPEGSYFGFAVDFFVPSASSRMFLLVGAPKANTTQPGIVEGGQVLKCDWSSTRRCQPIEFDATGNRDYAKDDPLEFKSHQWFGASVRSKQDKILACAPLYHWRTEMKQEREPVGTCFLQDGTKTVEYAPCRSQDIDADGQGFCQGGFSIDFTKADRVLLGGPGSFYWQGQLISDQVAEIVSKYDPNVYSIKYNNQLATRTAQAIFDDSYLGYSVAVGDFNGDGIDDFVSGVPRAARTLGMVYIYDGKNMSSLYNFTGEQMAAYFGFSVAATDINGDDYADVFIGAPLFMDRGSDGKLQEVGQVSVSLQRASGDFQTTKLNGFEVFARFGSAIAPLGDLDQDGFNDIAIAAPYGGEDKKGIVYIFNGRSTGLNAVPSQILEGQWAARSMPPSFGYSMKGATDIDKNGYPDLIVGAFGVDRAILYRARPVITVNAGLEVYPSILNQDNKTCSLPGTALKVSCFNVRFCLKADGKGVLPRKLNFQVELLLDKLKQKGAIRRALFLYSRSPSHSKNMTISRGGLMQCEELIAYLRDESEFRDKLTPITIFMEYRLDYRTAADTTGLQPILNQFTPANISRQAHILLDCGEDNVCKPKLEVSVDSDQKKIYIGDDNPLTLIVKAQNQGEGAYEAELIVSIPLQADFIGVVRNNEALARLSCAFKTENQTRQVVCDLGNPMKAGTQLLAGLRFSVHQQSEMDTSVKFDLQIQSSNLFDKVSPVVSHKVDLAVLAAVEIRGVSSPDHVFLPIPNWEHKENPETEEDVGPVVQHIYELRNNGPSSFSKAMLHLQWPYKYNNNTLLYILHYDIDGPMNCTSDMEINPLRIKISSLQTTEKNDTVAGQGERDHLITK
Sequence (P06756 891-1048 limits assumed): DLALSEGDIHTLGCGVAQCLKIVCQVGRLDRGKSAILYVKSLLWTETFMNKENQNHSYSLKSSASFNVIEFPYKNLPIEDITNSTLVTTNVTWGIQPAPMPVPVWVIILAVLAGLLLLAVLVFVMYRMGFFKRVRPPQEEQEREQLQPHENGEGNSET
method.description: Inhibition of integrin alpha-v-beta-3 receptor-mediated human SK-MEL-24 cell adhesion to fibronectin by fluorimetry
Residues, ends and D or L forms follow the SMILES beside them.
metric: pIC50
Reminder that pIC50 means the negative base-10 logarithm of the concentration expressed in mol/L.

[
  {
    "molecule": "N=C(N)NCCCC(=O)N1CCC[C@@H]1C(=O)N[C@@H](CC(=O)O)C(=O)NCc1ccccc1",
    "metric": "pIC50",
    "measured.value": 7.59
  },
  {
    "molecule": "Cc1ccc(S(=O)(=O)N[C@@H](CCCNC(=N)N)C(=O)N2CCC[C@H]2C(=O)N[C@@H](CC(=O)O)C(=O)NCc2ccccc2)cc1",
    "metric": "pIC50",
    "measured.value": 4.00
  },
  {
    "molecule": "N=C(N)NCCCC(=O)N1CCC[C@@H]1C(=O)N[C@@H](CCC(=O)O)C(=O)NCc1ccccc1",
    "metric": "pIC50",
    "measured.value": 5.59
  },
  {
    "molecule": "CC(=O)N[C@@H](CC(=O)O)C(=O)N[C@@H](CCCN=C(N)N)C(=O)NCC(=O)N[C@@H](CC(=O)O)C(=O)N[C@@H](CO)C(=O)O (Ac-DRGDS-OH)",
    "metric": "pIC50",
    "measured.value": 7.70
  },
  {
    "molecule": "N=C(N)NCCC(=O)N1CCC[C@@H]1C(=O)N[C@@H](CCC(=O)O)C(=O)NCc1ccccc1",
    "metric": "pIC50",
    "measured.value": 7.46
  }
]

-- ask Please indicate recorded pIC50 of `NC(N)=NCCCC(=O)N1CCC[C@@H]1C(=O)NCCC(=O)O` measured with Integrin alpha-V/beta-3 (Homo sapiens, UniProt P05106+P06756).
-- reply 5.92

-- ask // fetch pIC50; item: `Cc1ccc(S(=O)(=O)N[C@@H](CCCN=C(N)N)C(=O)N2CCC[C@@H]2C(=O)N[C@@H](CC(=O)O)C(=O)NCc2ccccc2)cc1` ; system: Integrin alpha-V/beta-3 (Homo sapiens, UniProt P05106+P06756)
-- reply 6.82

-- ask GET pIC50 where system = Integrin alpha-V/beta-3 (Homo sapiens, UniProt P05106+P06756) and item = `NC(N)=NCCCCC(=O)N1CCC[C@@H]1C(=O)N[C@@H](CC(=O)O)C(=O)NCc1ccccc1`
-- reply 3.64

-- ask Report value: pIC50, system: Integrin alpha-V/beta-3 (Homo sapiens, UniProt P05106+P06756), molecule: `CCCNC(=O)[C@H](CC(=O)O)NC(=O)[C@H]1CCCN1C(=O)CCCN=C(N)N`
-- reply 4.70
